# assay_method_text: yeast display, Sf9 membrane polyspecificity reagent, FACS + sequencing; frameworks hold sequencing errors
reported_metric: polyreactivity (PSR sort gate)

// below: answered sequences
sequence_string: QVQVVESGGGLVQAGGSLRLSCAASGRIFGYNAMGWYRQAPGKERELVAAISSGGSTYYADSVKGRFTISRDNAKNTVYLLMHSLKPEDTAVYYCAAEDYPPYPTVYDYWGQGTQVTVSS
polyreactivity (PSR sort gate): low polyreactivity
--
sequence_string: QVQLVESGGGLVQAGGSHRLSCAASGSIFRGYAMGWNRHAPRKERELVASITWSSGSTYYADSVKGRFTISRDNAKITVYLQMNSLKPEDTAVYDCAADVEYWSYEFNYWGQGTQVTVSS
polyreactivity (PSR sort gate): low polyreactivity
--
sequence_string: QVQLVESGGGLVQAGGSLRLSCAASGFTFYKNAMGWYRQAPGKERELVAAISRSGGSTYYADSVKGRFTISRDNAKNTVYLKMNSLKPEDTAVYYWAKGYCNFYRSDYWGQGTHVTVSS
polyreactivity (PSR sort gate): high polyreactivity
--
sequence_string: QVQVVESGGGLVQAGGSLRLSCAASGYIINQYTMGWYRQAPGKERELVADNSSGGSTTYADSVKGRFTISRDNAKNTVYLQMNSLKTEHTAVYYCNAEYDSGSPTAYDWEYDYWGHGTQVTVSS
polyreactivity (PSR sort gate): high polyreactivity

Next up:
Ask: Sample `QVQLVESGGGLVQEGGSLRLSCAASGFTFRYYTMGWYRQATGKERELVATITWSGGGTYYADSVKGRFTISRDNAKNTVYLQRISLKPVDSAVYYCTAGLFYKAQYGYWGKGTQVTVSS` — what was its polyreactivity (PSR sort gate)?
Reply: high polyreactivity

----------
# assay_method_text: yeast display, Sf9 membrane polyspecificity reagent, FACS + sequencing; frameworks hold sequencing errors
reported_metric: polyreactivity (PSR sort gate)

// below: answered sequences
sequence_string: QFQLVESGGGLVQAGGSLRLSCAASGRIFYYNAMGWYRQAPGKERELVASITGSGGSTYYADSVKGRFTISRDNAKNTVYLQMNSLKPEDTAVYYCAKREYLYPYYYVAKYDYWGQGTQVTVSS
polyreactivity (PSR sort gate): low polyreactivity
--
sequence_string: QVQLVESGGGLVQAGGSLRLSCAASGRTFPPYAMGWYRQAPGKERELVASIRRGGSTHYADSVKGRFTISRDNAKNTVYLQMNSLKPEDTAVYYCNADVIFGYTHYNYWGQGTQVTVSS
polyreactivity (PSR sort gate): high polyreactivity
--
sequence_string: QVQLVESGGGLVQAGGSLRLSCAASGRIFTQNAMGWYRQAPGKERELVAAITSGGSTYYADSVKGRFTISRDNAKNTVYLQMNSLKPEDTAVYYCAAEYGTYFVRYYAGASYRYGYWGQGTQVTVSS
polyreactivity (PSR sort gate): low polyreactivity
--
sequence_string: LEQLVESGGGLVHAGGSLRLSCAASRSNFPQYTLGWNRQAPVKERELVAAISNYGSSTYYADSEKGRFTISRDYAKNSVSLQMNSLKPEDTAVYECNADDYGYYPGVNYWGQGTQVTVSS
polyreactivity (PSR sort gate): low polyreactivity
--
sequence_string: QVQLVESGGGLVQAGGSLRLSCAASGLTFPYNLMGWYRQAPGKERELVASITSVGTTDYADSVKGRFTISRDNAKNTVYLQMNSLKPEDTAVYYCAADVTMFYWWYGKEDYDFWGQGNQVTVSS
polyreactivity (PSR sort gate): low polyreactivity

Ask: Sample `QVQLVESRGALVQAGGSLRLSCAASGYIFRAYAMGWYRPAPGKERELVAAISSRGGSTYYADSVKGRFTISRDNAKNTVYLQMNSLKPEDTAVYYCAAAYRQPYIGYGYWGQGTQVTVSS` — what was its polyreactivity (PSR sort gate)?
Reply: high polyreactivity

Ask: Sample `QFQLVESGGGLVQAGGSLRLSCAASGFTISWNTMGWYRQAPRKERELVATISGSGGRTYYADSVKGRFTISRDNAKNTVYFQMNSMKPEDTAVYYCAARYVLGGQGTSRRVRGGYWGQGTQLTVSS` — what was its polyreactivity (PSR sort gate)?
Reply: high polyreactivity

Ask: Sample `QVQLVESGGGLVQAGGSLRLSCAASGSIFDTNAMGWYRQAPGKERELVAAIRWSGGRTYYADSVKGRFTISRDNAKITVYLQMNSLKPEDTAVYYCNKVPRTPIPYKYGYWGQGTQVTVSS` — what was its polyreactivity (PSR sort gate)?
Reply: high polyreactivity

Ask: Sample `QVQLVESVGGLVQAGGSLRLSCAASGFTLFFYAMGWYRQAPGKERELVARITSRAGRTYYADSVKGRFTISRDNAKNTVYLQMNSLKPEDNAVFYCNTRDFSGYVHALSLYDYWGQGTQVTVSS` — what was its polyreactivity (PSR sort gate)?
Reply: high polyreactivity

Ask: Sample `QVQLVESGGGLVQAGGSLRLSCAASGGTFPQFAMGWYRQAPGKEREFVADITSRGGTTYYADSVKGRFTISRDNAKNTVYLQMNSLKPEDTAVYYCAADNPADWWGLDYWGQGTQVTVSS` — what was its polyreactivity (PSR sort gate)?
Reply: low polyreactivity

Ask: Sample `QVQLVESGGCLFQAGGSLRLSCAASGSTFYWYTMGWYRQAHGKERELVSTMTTVGRTNYADSVKGRFTISRDNAKNTVYLQMKSLKPEVTAVYYCAASKARWPRGGCKYYYWRQGTQVTVSS` — what was its polyreactivity (PSR sort gate)?
Reply: high polyreactivity

Ask: Sample `QVQLVESGGGLVQARGSLRLSCAASGITFNRYVMGWYRQAPGKERELVAAISRTGGSTYYADSVKGRFTISRDNAKNTDFLQMNSLKPEDTAVYYCAAATSPGIYDYWGQGTQVTVSS` — what was its polyreactivity (PSR sort gate)?
Reply: high polyreactivity

Ask: Sample `QVQLVESGGGLVQAGGSLRLSCAASGRTFGHYAMGLYRQAPGKERELVADITRRGGSTSYADSVKGRFTISRDNAKNTVYLQMNSLKPEDTAVYYCNKAADGSSHYDYWGQGTQVTVSS` — what was its polyreactivity (PSR sort gate)?
Reply: low polyreactivity

Ask: Sample `QVQLVESGGGLVQAGGSLRLSCAASGRSFRYYAMGWYRQAPGKERELVAAISVSGGTTYYADSVKGRFTISRDNAKNTVYLQMNSLKPEDTAVYYCNAYYLAEYDYWGQGTQVTVSS` — what was its polyreactivity (PSR sort gate)?
Reply: high polyreactivity

Ask: Sample `QVQHVESGGGLVQAGGSLRLSCAASGFTYFSNAMGWYREAPGKERELVASITNDGSTYADSVKGRFTISRDNAKNTVYLQMNRLKAEDTAVYYCAARFPKWRYSPRTGERFDYWGQGTQVTVSS` — what was its polyreactivity (PSR sort gate)?
Reply: low polyreactivity

Ask: Sample `QVQLVESGGGLVQAGGSLRLSCAASGSIFRKNAMGWYRQAPGKERELVAAITGTGRTTYADSVKGRFTISRDNAKNTVYLQMNSLKPEDTAVYYCAAEYYYRYSYTNEGDYWGQGTQVTVSS` — what was its polyreactivity (PSR sort gate)?
Reply: low polyreactivity

Ask: Sample `QVQLVESGGGLVQAGGSLRLSCAASGFMFTRYAMGSYRQAPGKERELVAAISWIGTSTYYADSVKGRCTISRDNAKNTVFLQMNSLTPEDTAVYYCNALLYSTGRPGFYLGYDYWGQGTQVTVSS` — what was its polyreactivity (PSR sort gate)?
Reply: high polyreactivity

Ask: Sample `QVQLVESGGGLVQAGGSLRLSCADSGSTFYRYGMASSRHAPGKERELVAAISWRGGITYYADSVKGRFTISRENAMHTVYLQRNSLKPQDSAVYYCAADGPYTGDGALDYWGQGTQVTVSS` — what was its polyreactivity (PSR sort gate)?
Reply: high polyreactivity

Ask: Sample `QVQLVESGGGLVQAGGSLRLSCAASGITFSKYAMGWYRQAPGKERELVAAITRSGGSTYYADSVKGRFTISRDNAKNTVYLQMNSLKPEDTAVYYCNARGYVTGGDGGYGYWGQGTQVTVSS` — what was its polyreactivity (PSR sort gate)?
Reply: high polyreactivity

Ask: Sample `QVQLVESGGGLVQAGGSLRISCAASGITFNKNDMGWYRQAPGKERELVAAISGRGGSTYYADSVKGRVTISRDNAKNTVYLQMNSLKPEDTAVYYCAADNFKGDSYGTGNYDYWGQGTQVTVSS` — what was its polyreactivity (PSR sort gate)?
Reply: high polyreactivity

Ask: Sample `QDQLVESGGGLVQAGGSLRLSCAPSGFIFSNYAMGWYRHGPGKERELVAAISFTGSNTYYADSVKGRFTISRDYAKNTVYLKMNSLKPEDTAVYFCNAPLEWGVYAAQNWDEGYWGQGSQVTVSS` — what was its polyreactivity (PSR sort gate)?
Reply: low polyreactivity
